tested on: A-375; experiment: Antiproliferative activity against human A-375 cells assessed as inhibition of cell growth measured after 48 hrs by MTT assay; type: functional, cell-based; details: A-375, 48 h
pIC50: −log10 of the molar value.
Measured attribute: pIC50

// worked examples, pIC50 included
CN1CCN(Cc2cc3c4ccccc4n(Cc4ccc(F)cc4)c3c(CN3CCN(C)CC3)n2)CC1
4.77
CCCCn1c2ccccc2c2cc(CN3CCN(C)CC3)nc(CN3CCN(C)CC3)c21
4.76
CN1CCN(Cc2cc3c4ccccc4n(CCCc4ccccc4)c3c(CN3CCN(C)CC3)n2)CC1
4.94
CN1CCN(Cc2cc3c4ccccc4n(Cc4ccccc4)c3c(CN3CCN(C)CC3)n2)CC1
4.87

(1) CN1CCN(Cc2cc3c4ccccc4n(Cc4cccc(Cl)c4)c3c(CN3CCN(C)CC3)n2)CC1
(2) CN1CCN(Cc2cc3c4ccccc4n(C)c3c(CN3CCN(C)CC3)n2)CC1
Q: Between 1 and 2 , which one shows the larger pIC50 value? # reply format: chosen label
Ans: 1

====

Entries annotated with measured pIC50
system: ECa-109 cell line; assay: Antiproliferative activity against human Eca-109 cells assessed as inhibition of cell growth measured after 48 hrs by MTT assay; format: functional, cell-based; settings: ECa-109, 48 h
Quick note: pIC50 values are minus log10 of concentrations in mol/L.

Example entries begin here.
CN1CCN(Cc2cc3c4ccccc4n(Cc4ccccc4)c3c(CN3CCN(C)CC3)n2)CC1
4.77
CN1CCN(Cc2cc3c4ccccc4n(Cc4ccc(F)cc4)c3c(CN3CCN(C)CC3)n2)CC1
5.01

Param item: CN1CCN(Cc2cc3c4ccccc4n(CCCc4ccccc4)c3c(CN3CCN(C)CC3)n2)CC1 ; param system: ECa-109 cell line; output pIC50: 5.06

The reported ECa-109 cell line pIC50 of CN1CCN(Cc2cc3c4ccccc4n(Cc4cccc(Cl)c4)c3c(CN3CCN(C)CC3)n2)CC1 is 4.95

// compound CCCCn1c2ccccc2c2cc(CN3CCN(C)CC3)nc(CN3CCN(C)CC3)c21 , assay ECa-109 cell line, pIC50 value: 4.59

====

system: 786-0; experiment: Antiproliferative activity against human 786-0 cells assessed as inhibition of cell growth measured after 48 hrs by MTT assay; type: functional, cell-based; conditions: 786-0, 48 h
Measured attribute: IC50 (nM)

Reference set (4 entries):
CN1CCN(Cc2cc3c4ccccc4n(Cc4ccc(F)cc4)c3c(CN3CCN(C)CC3)n2)CC1
2680
CN1CCN(Cc2cc3c4ccccc4n(CCCc4ccccc4)c3c(CN3CCN(C)CC3)n2)CC1
2710
CN1CCN(Cc2cc3c4ccccc4n(Cc4ccccc4)c3c(CN3CCN(C)CC3)n2)CC1
2360
CCCCn1c2ccccc2c2cc(CN3CCN(C)CC3)nc(CN3CCN(C)CC3)c21
2320

(a) CN1CCN(Cc2cc3c4ccccc4n(Cc4cccc(Cl)c4)c3c(CN3CCN(C)CC3)n2)CC1
(b) CN1CCN(Cc2cc3c([nH]c4ccccc43)c(CN3CCN(C)CC3)n2)CC1
(c) CN1CCN(Cc2cc3c4ccccc4n(C)c3c(CN3CCN(C)CC3)n2)CC1
Q: Falling order of IC50, please. Answer format: the labels, in the requested order.
Ans: b, c, a
(b: 28400 nM, c: 13400 nM, a: 3210 nM)
